Recorded values, source ChEMBL document CHEMBL3352346.

target: Sphingosine 1-phosphate receptor 1 (Homo sapiens); assay: Agonist activity at human S1P1R expressed in RH7777 membranes assessed as [35S]GTPgammaS binding after 30 mins
Sequence (P21453 whole entry): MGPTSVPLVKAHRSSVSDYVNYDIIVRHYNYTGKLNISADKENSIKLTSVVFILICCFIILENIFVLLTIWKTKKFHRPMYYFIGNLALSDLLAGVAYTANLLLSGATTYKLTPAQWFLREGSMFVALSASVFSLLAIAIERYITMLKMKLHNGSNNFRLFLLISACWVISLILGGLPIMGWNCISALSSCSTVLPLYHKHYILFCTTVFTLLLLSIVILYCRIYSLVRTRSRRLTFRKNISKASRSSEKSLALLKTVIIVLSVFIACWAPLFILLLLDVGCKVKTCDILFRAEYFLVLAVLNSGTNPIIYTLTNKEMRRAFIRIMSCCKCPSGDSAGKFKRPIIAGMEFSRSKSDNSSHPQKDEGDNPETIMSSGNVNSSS
MEASURED_PARAMETER: EC50 (nM)
Quick reminder: number only, in nM, skip the unit.

Input line: Could you share which EC50 value was measured for CC(C)Oc1ccc(-c2nc(-c3cccc4c3CCN(CC(=O)O)C4)no2)cc1C#N ?
Output line: 7.94

Input line: Same for CC(C)Oc1ccc(-c2nc(-c3ccc4c(c3)CN(CCCC(=O)O)CCO4)no2)cc1C#N
Output line: 63.1

Input line: Same for CC(C)Oc1ccc(-c2nc(-c3cccc4c3CNC4)no2)cc1Cl
Output line: 7.94

Input line: Same for CC(C)Oc1ccc(-c2nc(-c3cccc4c3OCCNC4CCC(=O)O)no2)cc1Cl (stereo not given)
Output line: 5.01

Input line: Same for CC(C)Oc1ccc(-c2nc(-c3ccc4c(c3)CNCCO4)no2)cc1C#N
Output line: 25.1
